Biological target: T1, CRBN, Q96SW2;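 note: pooled lentiviral library of zinc finger degron-EGFP fusions in mCherry-positive Jurkat cells, FACS-sorted after compound exposure, with degron abundance counted by next-generation sequencing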
T1 chain: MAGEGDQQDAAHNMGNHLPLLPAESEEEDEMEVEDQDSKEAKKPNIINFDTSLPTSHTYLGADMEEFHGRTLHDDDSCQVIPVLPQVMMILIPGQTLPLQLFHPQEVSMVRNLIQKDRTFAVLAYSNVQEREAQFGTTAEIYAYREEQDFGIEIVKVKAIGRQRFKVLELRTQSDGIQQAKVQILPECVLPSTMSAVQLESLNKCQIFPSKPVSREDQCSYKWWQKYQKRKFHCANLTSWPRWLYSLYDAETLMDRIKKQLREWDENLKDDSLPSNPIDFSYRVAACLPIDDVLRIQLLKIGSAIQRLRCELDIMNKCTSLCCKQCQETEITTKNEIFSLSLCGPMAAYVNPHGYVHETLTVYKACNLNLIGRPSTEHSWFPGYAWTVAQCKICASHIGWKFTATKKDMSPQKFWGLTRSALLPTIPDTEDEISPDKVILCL
Assay: log2 fold change of degron read counts, EGFP-low vs EGFP+ sorted cells (limma voom), compound-induced degradation; higher = more compound-induced degradation of the degron-EGFP fusion; degrons are variants of IKZF1/3 zinc finger 2; compound dose not given here
Settings: Jurkat; 18 h; compound: compound 22 (5-morpholino-thalidomide)
The full ranking holds about 8,300 sequences; the median of “log2 fold change of degron read counts, EGFP-low vs EGFP+ sorted cells (limma voom), compound-induced degradation” is about -1.1, and the highest 2% start at about 3.2. Shown is part of a subset that was picked to be rich in the highest values.
Reported Property: log2 fold change of degron read counts
Give the value as a plain number.

GET /value?item= FNCPICGRMFTQKGNLLRHIKL [46F_47N_49P_50I_52G_53R_54M_55F_67L_, Q9UKT9] &field=log2 fold change of degron read counts returns -0.626

GET /value?item= FQCDICGACFTQKGNLLRHIKL [46F_47Q_49D_50I_52G_53A_54C_55F_67L_, Q9UKT9] &field=log2 fold change of degron read counts returns 2.12

GET /value?item= FECPICGASFTQKGNLLRHIKL [46F_47E_49P_50I_52G_53A_54S_55F_67L_, Q9UKT9] &field=log2 fold change of degron read counts returns -0.116

GET /value?item= LCCNQCGFMCTQKGNLLRHIKL [46L_47C_49N_50Q_52G_53F_54M_55C_67L_, Q9UKT9] &field=log2 fold change of degron read counts returns -2.27

GET /value?item= FWCDVCGAAFTQKGNLLRHIKL [46F_47W_49D_50V_52G_53A_54A_55F_67L_, Q9UKT9] &field=log2 fold change of degron read counts returns 3.37

GET /value?item= FCCPICGASFTQKGNLLRHIKL [46F_47C_49P_50I_52G_53A_54S_55F_67L_, Q9UKT9] &field=log2 fold change of degron read counts returns 2.71

GET /value?item= FVCPICGASFTQKGNLLRHIKL [46F_47V_49P_50I_52G_53A_54S_55F_67L_, Q9UKT9] &field=log2 fold change of degron read counts returns 2.78

GET /value?item= FRCDVCGALFTQKGNLLRHIKL [46F_47R_49D_50V_52G_53A_54L_55F_67L_, Q9UKT9] &field=log2 fold change of degron read counts returns -2.03

GET /value?item= FYCNQCGHAFTQKGNLLRHIKL [46F_47Y_49N_50Q_52G_53H_54A_55F_67L_, Q9UKT9] &field=log2 fold change of degron read counts returns -2.37

GET /value?item= FLCPVCGAAFTQKGNLLRHIKL [46F_47L_49P_50V_52G_53A_54A_55F_67L_, Q9UKT9] &field=log2 fold change of degron read counts returns 0.132

GET /value?item= FYCPICGHNFTQKGNLLRHIKL [46F_47Y_49P_50I_52G_53H_54N_55F_67L_, Q9UKT9] &field=log2 fold change of degron read counts returns -1.84

GET /value?item= FVCDVCGAAFTQKGNLLRHIKL [46F_47V_49D_50V_52G_53A_54A_55F_67L_, Q9UKT9] &field=log2 fold change of degron read counts returns 1.92

GET /value?item= FRCPICGASFTQKGNLLRHIKL [46F_47R_49P_50I_52G_53A_54S_55F_67L_, Q9UKT9] &field=log2 fold change of degron read counts returns 1.71

GET /value?item= FVCEICGHWFTQKGNLLRHIKL [46F_47V_49E_50I_52G_53H_54W_55F_67L_, Q9UKT9] &field=log2 fold change of degron read counts returns -5.4

GET /value?item= FFCDICGACFTQKGNLLRHIKL [46F_47F_49D_50I_52G_53A_54C_55F_67L_, Q9UKT9] &field=log2 fold change of degron read counts returns 3.14
